Values were extracted from patent US20220073608A1.

target-desc: T1, mouse SEMA4D, full length, on CHO-K1 cells (CHO-K1 mSEMA4D) (mouse, UniProt O09126 24-861)
T1 construct: whole, on cells; also called murine SEMA4D recombinant cells
T1 sequence (looked up): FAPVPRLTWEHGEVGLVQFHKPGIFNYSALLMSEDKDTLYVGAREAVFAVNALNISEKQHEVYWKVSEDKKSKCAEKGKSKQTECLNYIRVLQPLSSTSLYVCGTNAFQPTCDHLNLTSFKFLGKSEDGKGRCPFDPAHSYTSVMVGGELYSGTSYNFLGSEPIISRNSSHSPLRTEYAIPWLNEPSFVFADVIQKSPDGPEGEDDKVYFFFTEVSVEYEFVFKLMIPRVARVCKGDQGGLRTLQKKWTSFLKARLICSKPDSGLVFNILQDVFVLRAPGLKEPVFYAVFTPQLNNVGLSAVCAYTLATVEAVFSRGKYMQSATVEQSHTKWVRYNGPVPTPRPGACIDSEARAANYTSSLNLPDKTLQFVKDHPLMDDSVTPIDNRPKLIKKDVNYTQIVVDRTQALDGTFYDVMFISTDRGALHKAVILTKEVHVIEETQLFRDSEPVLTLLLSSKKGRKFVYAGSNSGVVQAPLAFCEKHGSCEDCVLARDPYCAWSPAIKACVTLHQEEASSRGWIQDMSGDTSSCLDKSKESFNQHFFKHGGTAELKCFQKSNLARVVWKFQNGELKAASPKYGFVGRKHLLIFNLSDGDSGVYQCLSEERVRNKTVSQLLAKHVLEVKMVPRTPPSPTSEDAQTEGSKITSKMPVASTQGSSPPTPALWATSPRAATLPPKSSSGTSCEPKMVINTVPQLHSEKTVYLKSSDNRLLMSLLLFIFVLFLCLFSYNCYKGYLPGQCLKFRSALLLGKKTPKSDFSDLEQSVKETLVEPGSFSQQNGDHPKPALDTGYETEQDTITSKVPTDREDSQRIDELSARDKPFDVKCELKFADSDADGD
assay-method-text: FACS, CHO-K1 mSEMA4D cells; Ab 13.3 nM
Catalogue of MFI readings, one per entry.
# print the numeric value only

INSERT INTO assay_data (binder, endpoint_result) VALUES
  ('37C4F7 (antibody, V domains shown, Mouse monoclonal antibody purified from hybridoma supernatant on protein A) VH: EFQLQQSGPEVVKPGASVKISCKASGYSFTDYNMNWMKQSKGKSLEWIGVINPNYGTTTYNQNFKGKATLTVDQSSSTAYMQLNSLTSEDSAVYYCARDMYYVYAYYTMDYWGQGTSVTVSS VL: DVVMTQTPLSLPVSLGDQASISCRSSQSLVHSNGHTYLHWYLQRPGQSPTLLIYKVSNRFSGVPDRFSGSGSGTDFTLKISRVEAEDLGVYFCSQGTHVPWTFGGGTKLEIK', 29.8),
  ('31G10C5 (antibody, V domains shown, Mouse monoclonal antibody purified from hybridoma supernatant on protein A) VH: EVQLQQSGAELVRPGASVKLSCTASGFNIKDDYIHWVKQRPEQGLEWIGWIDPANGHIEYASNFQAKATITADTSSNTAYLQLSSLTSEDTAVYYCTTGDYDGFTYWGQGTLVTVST VL: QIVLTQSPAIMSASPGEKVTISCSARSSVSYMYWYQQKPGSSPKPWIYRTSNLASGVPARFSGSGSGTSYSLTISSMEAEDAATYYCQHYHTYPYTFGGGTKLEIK', 30.9);

Now consider the entry below.
Could you share which MFI value was measured for 38H2E3 (antibody, V domains shown, Mouse monoclonal antibody purified from hybridoma supernatant on protein A) VH: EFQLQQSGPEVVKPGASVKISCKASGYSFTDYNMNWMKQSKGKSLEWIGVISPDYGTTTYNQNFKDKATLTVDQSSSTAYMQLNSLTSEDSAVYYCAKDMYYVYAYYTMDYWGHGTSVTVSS VL: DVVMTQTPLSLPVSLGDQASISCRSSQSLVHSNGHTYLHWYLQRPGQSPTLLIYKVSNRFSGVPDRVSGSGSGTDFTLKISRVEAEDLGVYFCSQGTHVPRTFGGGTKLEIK ?
31
